assayProtocol: chemical genetic growth profiling, strain panel (AID 1159580);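 also: tested at 20 µM; growth read once vehicle control cultures reached saturation at 30 °C; 1 = growth at the plate median or of vehicle wells; lower values mean less growth of the strain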
runConditions: S. cerevisiae deletion strains, growth OD, locus YER110C, stronger effect = lower value
Screen size: about 5,500 compounds; about 2,000 (36%) were called active. Not shown: some 18% with an inconclusive outcome. The list shows a part of the results.
assayEndpoint: normalized growth
API doc: respond with a numeric literal and nothing else, no unit.

Below: 6 molecules and their reported normalized growth.
[
  {
    "molecule": "Cc1cc(O)c(C)c(O)c1C(=O)O",
    "normalized growth": 0.984
  },
  {
    "molecule": "COc1cc(O)c(C(=O)/C=C/c2ccccc2)c(OC)c1",
    "normalized growth": 0.863
  },
  {
    "molecule": "CC(CCc1ccccc1)NC(C)C(O)c1ccc(O)cc1 (stereo not drawn)",
    "normalized growth": 0.962
  },
  {
    "molecule": "O=C(O)C1(O)C[C@@H](O)C(O)[C@H](O)C1 (stereo partly drawn)",
    "normalized growth": 1.02
  },
  {
    "molecule": "Cc1c(O)c(C(=O)CC(C)C)c2oc3c(C(=O)CC(C)C)c(O)c(C)c(O)c3c2c1O",
    "normalized growth": 0.995
  },
  {
    "molecule": "CCCCCCCCNC(C)C(O)c1ccc(SC(C)C)cc1 (stereo not drawn)",
    "normalized growth": 0.0696
  }
]

What does the record list as normalized growth for `CN[C@@H](C)[C@@H](O)c1ccccc1` ?
0.987
